Source: the nanobody polyreactivity screen of Harvey et al. (2022)

METHOD: yeast display, Sf9 membrane polyspecificity reagent, FACS + sequencing; frameworks hold sequencing errors
READOUT_NAME: polyreactivity (PSR sort gate)

{"SEQUENCE_CODE": "QVQLVESGGGLVQAGGSLRLSCAASGSTFYPYAMGGYRQAPGKERELVAAISSGGSTYYADSVKGRFTISRDNAKNTVYLQMNSLKPADTAVYYCAADFYYAYYWGQGTQVTVSS", "READOUT_VALUE": "low polyreactivity"}
{"SEQUENCE_CODE": "QVQLVESGGGLVQAGGSLRLSCAASGSTFSYYAMGWYRQAPGKERELVAAITSGGRTKYADSVKGRFTISRDNAKNTVYLQMNSLKPEDTAVYYCAKRIEKFSGSLAGRWYDYWGQGTQVTVSS", "READOUT_VALUE": "high polyreactivity"}
{"SEQUENCE_CODE": "QVQLVESGGGLVKAGGSLRLSCAASGFILRAYAMGWYRQAPGKEREFVAAITRRGGRTYYADSVKGRFTISRDNAKKTVSLQMYSLKPEDTAVYYCNRVERRGTYDYWGQGTQVTVSS", "READOUT_VALUE": "high polyreactivity"}
{"SEQUENCE_CODE": "QVQLVESGGGLVQAGGSLRLICAASGSIFRFYAMGWYRQAPGTERELVAAISKTGGRTYYADSVKGRFTISRDNAKNTFYLQMNSLKPEDTAVYYCAASIREGFYWGQGTQVTVSS", "READOUT_VALUE": "high polyreactivity"}
{"SEQUENCE_CODE": "QVQHVESGGGLVQAGGSLRLSCAASGSIFSAYTMGWYRPAPGKERELVAAISSSGGRTYYADSVKGRFTISRDNAKNTVYLQMNSLKPEDTAVYYCAAGYWWALSSRGYGYWGQGTQVTVSS", "READOUT_VALUE": "high polyreactivity"}
{"SEQUENCE_CODE": "QVQLVESGGGLVQAGGSLRLSCAASGSTFYYYGMGWYRQAPGKESALVAAISSSGGNTYYADSVKGRFTISRDNAKNTVYLQMNSLKPEDTAVYYCARGGHRGYWGQGTQVTVSS", "READOUT_VALUE": "low polyreactivity"}
{"SEQUENCE_CODE": "QVQLVESGGGLVQAGGSLRLSCAASGRTFRSYDMGWYRQAPGKERELVAAISEDGGYTYYADSVKGRFTISRDNAKITVYLQMNSLKPEDTAVYYCAKDRPGPLRWWFLYGYWGQGTQGTVSS", "READOUT_VALUE": "low polyreactivity"}
{"SEQUENCE_CODE": "QVQLVESGGGLVQAGGSLRLSCASSGRTYTLNAMGWYRQAPGKERELVAAIRRGGSTYYADSVKGRFTISRDNAKNTVYLQMNSLKPEDTAVYYCAARGTGYHGYGYWGQGTQVTVSS", "READOUT_VALUE": "high polyreactivity"}
{"SEQUENCE_CODE": "QVQLVESGGGLVQAGGSLSLRCASYGSISFINAMGWYRQAPGKEMELVARITWSGGTTYYADSVKGRFTISRDNAKNTVYLQMNSLKPEDTAVYYCAAYIWAPLEGYEYDYWGQGTQVTVSS", "READOUT_VALUE": "high polyreactivity"}
{"SEQUENCE_CODE": "QVQLVESGGGLVQAGGSLRLSCAASGYILHPNAMRWYRQSPGKDRELVAAIRWRGGSTYYADSVKGRFTISRDNAKNTVYLQMNSLKPEDTAVYYCAADKSKYRAFDYWGQGTQVTVSS", "READOUT_VALUE": "high polyreactivity"}
{"SEQUENCE_CODE": "QVQLVEAGGGLVQAGGSLRLSCAASGSTFPYYTMGGYRQAPGKDRELVAAITWRGGRTYYADSVKGRFTISRDNAKNTVYLQMNSLKPEDTAVYYCAAKQKHTQQTGWKYEYWGQGTQVTVSS", "READOUT_VALUE": "high polyreactivity"}

* * *

METHOD: yeast display, Sf9 membrane polyspecificity reagent, FACS + sequencing; frameworks hold sequencing errors

{"SEQUENCE_CODE": "QVQLVESGGGLVQAGGRLRLTCAASGRIFVIYAMRWYRQAPGKERELVAGITRGDRTYADSVKARFTISRDNAKNTVYLQMNSLKPEDTAVYYCNADTGYRFDYWGQGTQVTVSS", "polyreactivity (PSR sort gate)": "high polyreactivity"}
{"SEQUENCE_CODE": "QVQLVESGGGLVQAGGSLRLSCAASGFTFWRYAMGWSRQATGKERELVAVITWSGTRTYYADSVKGRFTISRDNAKNTVYLQMNSLKPEDTAVYYCAAYITDVAGRAYDYWGQGTQVTVSS", "polyreactivity (PSR sort gate)": "high polyreactivity"}
{"SEQUENCE_CODE": "QVQLVESGGGLVQAGGSLRLSCAASGRIFESYAMGWYRQAPGKERELVAAISRSGGSTYYADSVKGRFTISRDNAKNTVYLQMNSLKPEDTAVYYCNTYYYHHYDYWGQGTQVTVSS", "polyreactivity (PSR sort gate)": "high polyreactivity"}

* * *

METHOD: yeast display, Sf9 membrane polyspecificity reagent, FACS + sequencing; frameworks hold sequencing errors

{"SEQUENCE_CODE": "QVQLVESGGGIVQAGGSLRLSCAASGRIFLRNAMGWYRQAPGYEREFVAAMRYSGGRTYYADSVKGRFTISRDNAKNTVYLQMISLNPEDTAVYYCAAEGSSRSSYRKYDYWGQGSQVTVSS", "polyreactivity (PSR sort gate)": "high polyreactivity"}
{"SEQUENCE_CODE": "QVQLVESGGGLVQAGGSLRLSCADSVFTFGYYAMGWYRQAPGKERELVAAISRNGGRTYYADSVKGRFTISRDNAKNNVYLQMNSLKTVYTAVHYCNALLFFLNRVWSFDYWGQGTQVTVSS", "polyreactivity (PSR sort gate)": "high polyreactivity"}

* * *

METHOD: yeast display, Sf9 membrane polyspecificity reagent, FACS + sequencing; frameworks hold sequencing errors

{"SEQUENCE_CODE": "QVQLVESGGGLDQAGGSLRLSCAASGSIYWNNAMGWYRQAPRKERELDAAISKSGTRTYYADSVKGRFTISRDNAKNTVYLQMNSLKPEDTAVYYCNALLSDSGTYAGDDYWGQGTQVTVSS", "polyreactivity (PSR sort gate)": "high polyreactivity"}
{"SEQUENCE_CODE": "QVQLVESGGGLVQAGGSLRLSCAASGSIFPPYALGWYRQAPGKERELVAAIDWGGSSTYYADSVKGRFTISRDNAKYTVYLQMNSLKPEATAVYYCAAEVVHGYYLYEYWGQGTQVTVSS", "polyreactivity (PSR sort gate)": "high polyreactivity"}
{"SEQUENCE_CODE": "QVQLVESGGGLVQAGGSLRLSCAASGLTLKYYAMGWYRQAPGKERELVAAITYSGGSTYYADSVKGRFTFSRDNAKNTVYLQMNSLIPEDTAVFYCNAGPSVTSGYDYDYWGQGTQVTVSS", "polyreactivity (PSR sort gate)": "low polyreactivity"}
{"SEQUENCE_CODE": "QVQLVESGGGLVQAGGSLRLSCAASGRIFPYYAMGWYRQAPGKDRELVAANSYRGPRTSYADSVKGRFTISRDNAKNTAYLQRNSLKPEDTAVYYCAAVSVSWRGGRSSYEYWGQGTQVTVSS", "polyreactivity (PSR sort gate)": "high polyreactivity"}
{"SEQUENCE_CODE": "QVQLEESAGGLVQAGGSHRLSCADTGRTFRWYAMGWYRQAPGKERELVAAISRNGGSTSFADSVKGRFTISRDNAKKTVYLQLNSLKPEDTAVYYCAAGSRVQWYGYDYWGQGTQVTVSS", "polyreactivity (PSR sort gate)": "high polyreactivity"}
{"SEQUENCE_CODE": "QVQLVESGGGLVQAGGSLRLSCAASGRIFQYYAMGWYRQAPGKERELVAAIDQSGDTTYYADSVKGRFTISRDNAKNTVYLQMNSLKPEDTAVYYCAAGYDWAYHWVPQWMYFWGQGTQVTVSS", "polyreactivity (PSR sort gate)": "low polyreactivity"}
{"SEQUENCE_CODE": "QVQLVESGGGLVQAGGSLRLSCAASGFTFGHYAMGRYRQAPGKERELVAAIRWSGGSTYYADSVKGRFTISRDNAKNTVYLQMNSLKPEDTAVYYCAADGEDSLWTGYDYDYWGQGTQVTVSS", "polyreactivity (PSR sort gate)": "low polyreactivity"}
{"SEQUENCE_CODE": "QVQLVESGGGLVQAGGSLRLSCAASGRTFFRNAMGWDRQEPGSERELVAGISRSGGSTYYADSVKGRFTISRDNAKNTGYLQMNSLKPEDTAVYYCAAALYPYPGYEYWGQGTQVTVSS", "polyreactivity (PSR sort gate)": "high polyreactivity"}
{"SEQUENCE_CODE": "QVQLVESGGGLVQAGGSLRLSCAASGSTFETYAMGWYRQAPGKERELVATISLSGGRTYYADSVKGRFTISRDNAKNTVYLQMNSLKPEDTAVYYCNADGYGNVGGGDSWGQGTQVTVSS", "polyreactivity (PSR sort gate)": "low polyreactivity"}
{"SEQUENCE_CODE": "QVHLVESGGGLVQAGGSLRISCAASGRTFQVYAMGRYRQAPGKERELVAAISLTGGGTYYADSVKGRFTISRDYANNTVYLQMNSLKPEDTAVYYCAVRRRTHLGFLYEYWGQGTQVTVSS", "polyreactivity (PSR sort gate)": "high polyreactivity"}
{"SEQUENCE_CODE": "QVQLVESGGCLVQAGGSLRLSCAASGGIFGKYAMGWYRQAPGKESELVAAITWNGVSTYYADSVKGRFTISRDNAKNTVYLQMNSLKPEDTAVYYCAKASLPYRPDSTPDRRYDYWGQGTQVTVSS", "polyreactivity (PSR sort gate)": "high polyreactivity"}
{"SEQUENCE_CODE": "QDQLVESGGGLVQAGGSLRLTSAASGRIFTIYAMGWYRQPPGKDRELVAAISDRGTRTYYADSVKGRFTISRDIAKNTVYLQMNSLKPEDTAVNYCSTDALYTYGYDYWGQGTQVTVSS", "polyreactivity (PSR sort gate)": "low polyreactivity"}
{"SEQUENCE_CODE": "QVQLVESGGGLVQAGGSLRLSCAASGITFYDYAMGWYRQAPGKERELVAAINSSGVRTYYADSVKGRFTISRDNAKNTVYLQMNSLKPEVTAVYYCAAVRRGPYISRSDMDYYWGQGTQVTVSS", "polyreactivity (PSR sort gate)": "high polyreactivity"}
